Biological target: UniProt:O75762
Assay: Inhibition of cinnamaldehyde-activated full length human TRPA1 channel expressed in 293T-Rex cells monitored at 5 sec interval by manual patch clamp electrophysiological method
pIC50: −log10 of the molar value.
Parameter: pIC50

1. N#Cc1ccc(CC(CNC(=O)C2(c3ccc(Cl)cc3)CCCC2)N2CCC(O)(C(F)(F)F)CC2)cc1 (stereo not drawn) = 7.20

A = CC(C)(C(=O)NCC(Cc1ccccc1)N1CCC(O)(C(F)(F)F)CC1)c1ccccc1 (stereo not drawn)
B = O=C(NCC(Cc1ccccc1)N1CCC(C(F)(F)F)CC1)C1(c2ccc(Cl)cc2)CCCC1 (stereo not drawn)
Q: Kindly identify the item with the lower pIC50 figure among these two: A and B Please respond with the label that marks your chosen entry.
Ans: A
(A: 7.37, B: 8.15)

###

Biological target: Transient receptor potential cation channel subfamily A member 1 (Homo sapiens)
Sequence (O75762 whole entry): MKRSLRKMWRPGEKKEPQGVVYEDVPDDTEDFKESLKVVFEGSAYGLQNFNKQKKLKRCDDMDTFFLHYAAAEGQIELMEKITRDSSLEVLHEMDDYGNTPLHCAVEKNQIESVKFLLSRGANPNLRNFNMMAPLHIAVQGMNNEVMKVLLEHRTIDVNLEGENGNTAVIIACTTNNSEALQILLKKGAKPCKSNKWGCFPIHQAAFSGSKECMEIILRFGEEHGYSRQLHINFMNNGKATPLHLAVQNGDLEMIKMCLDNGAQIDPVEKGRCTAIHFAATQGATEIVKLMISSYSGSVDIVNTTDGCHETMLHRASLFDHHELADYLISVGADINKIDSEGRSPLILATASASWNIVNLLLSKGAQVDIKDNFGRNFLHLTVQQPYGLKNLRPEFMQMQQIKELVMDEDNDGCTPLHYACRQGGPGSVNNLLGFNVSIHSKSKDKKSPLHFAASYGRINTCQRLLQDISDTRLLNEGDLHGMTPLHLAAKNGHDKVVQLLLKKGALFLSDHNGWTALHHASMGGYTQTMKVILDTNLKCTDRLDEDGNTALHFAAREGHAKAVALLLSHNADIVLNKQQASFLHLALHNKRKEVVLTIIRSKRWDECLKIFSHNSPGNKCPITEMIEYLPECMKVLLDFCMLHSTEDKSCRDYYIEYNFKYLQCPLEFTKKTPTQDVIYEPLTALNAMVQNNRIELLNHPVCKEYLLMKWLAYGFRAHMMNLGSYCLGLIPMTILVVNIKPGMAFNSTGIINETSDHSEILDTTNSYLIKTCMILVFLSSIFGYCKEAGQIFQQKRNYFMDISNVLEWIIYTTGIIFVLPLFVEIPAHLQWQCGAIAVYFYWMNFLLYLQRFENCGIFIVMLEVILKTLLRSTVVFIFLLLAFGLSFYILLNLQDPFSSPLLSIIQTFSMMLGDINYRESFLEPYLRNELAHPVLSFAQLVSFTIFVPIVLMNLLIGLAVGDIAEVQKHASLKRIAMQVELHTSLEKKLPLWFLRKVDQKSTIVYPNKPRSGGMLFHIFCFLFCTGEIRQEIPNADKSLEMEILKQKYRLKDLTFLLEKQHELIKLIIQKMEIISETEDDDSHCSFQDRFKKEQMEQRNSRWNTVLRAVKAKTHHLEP
Assay: Inhibition of cinnamaldehyde-activated full length human TRPA1 channel expressed in 293T-Rex cells monitored at 5 sec interval by manual patch clamp electrophysiological method
pIC50: −log10 of the molar value.
Parameter: pIC50

1) O=C(NCC(Cc1ccc(Br)cc1)N1CCC(O)(C(F)(F)F)CC1)C1(c2ccc(Cl)cc2)CCCC1 (stereo not given) = 7.92

I = O=C(NCC(Cc1ccccc1)N1CCC(O)(C(F)(F)F)CC1)C1(c2ccc(Cl)cc2)CC1 (stereo not given)
II = O=C(NCC(Cc1ccccc1)N1CCC(O)(C(F)(F)F)CC1)C1(c2ccc(Cl)cc2)CCCC1 (stereo not given)
III = O=C(NCC(Cc1ccccc1)N1CCC(O)(C(F)(F)F)CC1)C1(c2ccc(F)cc2)CCCCC1 (stereo not given)
IV = O=C(NCC(Cc1ccc(F)cc1)N1CCC(O)(C(F)(F)F)CC1)C1(c2ccc(Cl)cc2)CC1 (stereo not given)
Q: Ordering criterion: pIC50; begin with the maximum. The reply should contain the labels ordered as requested.
Ans: II, IV, III, I
